B1: Pistol ribozyme (parent)
chain: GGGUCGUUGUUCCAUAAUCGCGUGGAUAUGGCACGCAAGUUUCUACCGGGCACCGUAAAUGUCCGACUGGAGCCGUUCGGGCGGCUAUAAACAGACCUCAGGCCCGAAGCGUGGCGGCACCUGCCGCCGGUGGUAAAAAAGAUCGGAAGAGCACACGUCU

Variants of: B1
assay.remarks: aptazyme ON/OFF ratio, guanine; higher = stronger switching; co-transcriptional cleavage with and without guanine
property.name: aptazyme ON/OFF ratio
Give bare numbers.

> print(dat)
                           variant          property.name  result.value
1  U7G U8C G9C U10C U11A C12U C13A  aptazyme ON/OFF ratio          1.04
2                U7A G9C U11A C13A  aptazyme ON/OFF ratio          1.02
3      U7C G9U U10A U11C C12A C13G  aptazyme ON/OFF ratio          1.14
4      U7C U8A U10G U11A C12G C13U  aptazyme ON/OFF ratio          1.29
5       U7A U8A G9C U10A U11A C12G  aptazyme ON/OFF ratio          1.27

Parameter requested: aptazyme ON/OFF ratio. Apply to each item below.
1. U8G G9U U10C U11G C12A C13G
2. U7A U8A U10A C12U C13G
3. U7G U8A G9U U10A U11A C12U C13A
4. U7G U8C U10C U11C C12G C13U

Out:
1.11
1.1
1.07
1.14

src = the RNAGym collection of RNA variant scans (doi:10.1021/acssynbio.7b00057)
